experiment: AUC (0 to 24 hrs) in mouse at ED50, po; type: ADME, organism-based; design: time < 24 hr, route oral; settings: plasma
Measurement kind: AUC(0-t) at 24 h (µM·h)
Numeric answer only, unit µM·h assumed.

Entry COc1cnc2c(NCc3nnc4ccc(-c5cc(C)ns5)nn34)ccnc2c1 has what AUC(0-t) at 24 h?
0.43

====

molecular target: UniProt:P08684; assay: Inhibition of human CYP3A4; type: ADME
Sequence (P08684 whole entry): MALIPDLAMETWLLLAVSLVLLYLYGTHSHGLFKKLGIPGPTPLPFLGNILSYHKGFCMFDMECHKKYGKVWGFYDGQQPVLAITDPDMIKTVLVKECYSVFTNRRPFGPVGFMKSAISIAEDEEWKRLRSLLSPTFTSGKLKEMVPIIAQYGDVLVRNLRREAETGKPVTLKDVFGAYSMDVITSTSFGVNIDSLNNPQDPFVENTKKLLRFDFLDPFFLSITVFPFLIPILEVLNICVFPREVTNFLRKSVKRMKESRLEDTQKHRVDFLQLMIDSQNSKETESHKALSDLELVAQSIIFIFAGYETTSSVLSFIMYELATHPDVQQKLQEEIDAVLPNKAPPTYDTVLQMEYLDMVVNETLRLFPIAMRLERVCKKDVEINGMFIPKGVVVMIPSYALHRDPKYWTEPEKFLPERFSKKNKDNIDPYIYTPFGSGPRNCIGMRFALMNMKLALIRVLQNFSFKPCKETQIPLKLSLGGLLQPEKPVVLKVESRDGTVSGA
pIC50: −log10 of the molar value.
Measurement kind: pIC50

Entry COc1ccc2c(NCc3nnc4ccc(-c5ccccc5)nn34)ccnc2c1 has what pIC50?
< 4.30

Entry COc1ccc2c(OCc3nnc4ccc(-c5ccc(F)c(F)c5)nn34)ccnc2c1 has what pIC50?
< 4.30

Entry COc1cnc2c(NCc3nnc4ccc(-c5ccc(F)c(F)c5)nn34)ccnc2c1 has what pIC50?
< 4.30

Where do these numbers come from? They come from ChEMBL document CHEMBL1156101.
